Target: MAGE-A11:PCF11 interaction (GST-MAGE-A11 and FAM-PCF11_4) (Homo sapiens, UniProt P43364)
Construct: GST-MAGE-A11 MHD (human MAGE-A11 MHD amino acid 218-429); made in house; host or cells: E. coli BL21(DE3)
Sequence (P43364 218-429): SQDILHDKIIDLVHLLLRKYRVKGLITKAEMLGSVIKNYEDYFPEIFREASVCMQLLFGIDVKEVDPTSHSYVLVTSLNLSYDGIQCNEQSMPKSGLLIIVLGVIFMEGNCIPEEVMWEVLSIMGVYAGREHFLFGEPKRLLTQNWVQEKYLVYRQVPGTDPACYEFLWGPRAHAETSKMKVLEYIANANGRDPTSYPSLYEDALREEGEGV
Test: TR-FRET primary / single point screen at 15 µM
Type: binding
Settings: single point TR-FRET screening of quinoline compounds against MAGE-A11:PCF11; 15 µM
metric: percent inhibition (TR-FRET)

[[record]]
molecule = "Clc1ccc2c(NCCCN(Cc3ccccc3)Cc3c[nH]c4ccccc34)ccnc2c1"
metric = "percent inhibition (TR-FRET)"
recordedvalue = 40.1907


Look at each molecule and report its percent inhibition (TR-FRET).
1. c1ccc(-c2ccc3c(NCCCNCc4ccco4)ccnc3c2)cc1
2. CN(C)CCCNc1c2c(nc3ccccc13)CCC2
3. Fc1cccc(C(F)(F)F)c1CN(CCCNc1ccnc2cc(Cl)ccc12)Cc1ccccc1
4. Fc1ccc(CN(CCCNc2ccnc3cc(Cl)ccc23)Cc2ccccc2)cc1

1: 28.689; 2: 24.0531; 3: 22.0104; 4: 18.0772

Value source: paper PMC7529893
